# testedTarget: UniProtKB P35408
# protocolDetails: Test for antagonism of the human EP4 receptor signal (cAMP HTRF)
# Assay type: cell-based
# recordedConditions: cells expressing hEP4, PGE2 at EC80 (0.4 nM), cAMP TR-FRET; read-out: Antagonism hEP4 IC50
Catalogue of compounds with associated IC50
Note: unit nM is implicit; provide only the numeric part.

smilesString: CCn1c2ccccc2c2cc(-c3nc4cc(C(N)=O)ccc4n3CC3CC3)ccc21
IC50 / nM: 176

smilesString: CCn1c2ccccc2c2cc(-c3nc4cc(C(=O)NCCOC)ccc4n3CCOC)ccc21
IC50 / nM: 42.8

smilesString: CCn1c2ccccc2c2cc(-c3nc4cc(C(=O)NS(=O)(=O)Cc5c(C)cccc5Cl)ccc4n3CCOC)ccc21
IC50 / nM: 36.9

smilesString: CCn1c2ccccc2c2cc(-c3nc4cc(C(=O)NS(=O)(=O)CCc5ccccc5C)ccc4n3CCOC)ccc21
IC50 / nM: 239

smilesString: CCn1c2ccccc2c2cc(-c3nc4c(Cl)c(C(=O)OC)ccc4n3CC3CC3)ccc21
IC50 / nM: 1430

Input line: Identify the reported IC50 for the following entry. `CCn1c2ccccc2c2cc(-c3nc4c(C)c(C(=O)O)ccc4n3CCOC)ccc21`
Output line: 64.3

Input line: Tell us which IC50 value is on record for `C#CCn1c2ccccc2c2cc(-c3nc4cc(C(=O)O)ccc4n3CCOC)ccc21`
Output line: 43.7

Input line: Using known records, supply IC50 for `CCn1c2ccccc2c2cc(-c3nc4cc(C(=O)NS(=O)(=O)CC)ccc4n3CCOC)ccc21`
Output line: 22.8

Input line: Item `CCn1c2ccccc2c2cc(-c3nc4cc(C(=O)NS(=O)(=O)CCOC)ccc4n3CCOC)ccc21` : provide IC50
Output line: 16.9

Input line: Identify the reported IC50 for the following entry. `C=CCn1c(-c2ccc3c(c2)c2ccccc2n3CC)nc2cc(C(N)=O)ccc21`
Output line: 3640

Input line: Read the entry `COCCn1c(-c2ccc3c(c2)c2ccccc2n3CC2CC2)nc2cc(C(=O)O)ccc21` and write its reported IC50.
Output line: 13.1

Input line: Let me know recorded IC50 for `Cn1c2ccccc2c2cc(-c3nc4cc(C(=O)O)ccc4n3CC3CC3)ccc21` , thanks.
Output line: 39.4

Input line: In one line, give reported IC50 of the entry `CCn1c2ccccc2c2cc(-c3nc4cc(C(=O)NC)ccc4n3CCOC)ccc21` .
Output line: 96.7

Input line: Assign IC50 to the following record: `CCn1c2ccccc2c2cc(-c3nc4cc(C(=O)NC)ccc4n3CCN(C)C)ccc21`
Output line: 382

Input line: Determine from records and report IC50 for `CCn1c2ccccc2c2cc(-c3nc4cc(C(=O)N5CCCC5)ccc4n3CCOC)ccc21`
Output line: 41.3

Input line: Indicate its recorded IC50; the compound in question is `CCn1c2ccccc2c2cc(-c3nc4cc(C(=O)OC)ccc4n3CC3CC3)ccc21`
Output line: 404

Input line: Give the measured IC50 for `C=CCn1c(-c2ccc3c(c2)c2ccccc2n3CC)nc2cc(C(=O)NC)ccc21`
Output line: 2100

---

# testedTarget: human EP4 receptor (Homo sapiens (Human), UniProt P35408)
# Sequence (P35408 whole entry): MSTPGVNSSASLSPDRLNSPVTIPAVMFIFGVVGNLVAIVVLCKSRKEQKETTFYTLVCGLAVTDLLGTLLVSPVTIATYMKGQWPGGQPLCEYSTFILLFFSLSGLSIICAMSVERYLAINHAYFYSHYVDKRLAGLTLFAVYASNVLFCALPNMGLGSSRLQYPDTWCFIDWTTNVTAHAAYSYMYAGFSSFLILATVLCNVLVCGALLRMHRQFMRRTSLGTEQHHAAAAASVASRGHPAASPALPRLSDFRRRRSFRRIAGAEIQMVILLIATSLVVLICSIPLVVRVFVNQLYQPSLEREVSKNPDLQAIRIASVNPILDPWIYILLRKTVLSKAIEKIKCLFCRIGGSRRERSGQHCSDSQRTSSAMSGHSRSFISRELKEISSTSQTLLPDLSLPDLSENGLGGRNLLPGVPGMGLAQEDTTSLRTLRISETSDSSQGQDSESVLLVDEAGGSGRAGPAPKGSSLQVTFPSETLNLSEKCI
# protocolDetails: Test for antagonism of the human EP4 receptor signal (cAMP HTRF)
# Assay type: cell-based
# recordedConditions: cells expressing hEP4, PGE2 at EC80 (0.4 nM), cAMP TR-FRET; read-out: Antagonism hEP4 IC50
quantityMeasured: pIC50
Bear in mind: pIC50 is minus log10 of a mol/L concentration; give just that figure.

Below, each entry is followed by its recorded pIC50 result.
smilesString: CCn1c2ccccc2c2cc(-c3nc4cc(C(=O)NS(=O)(=O)Cc5ccc(Cl)cc5)ccc4n3CCOC)ccc21
pIC50: 6.86
--
smilesString: CCn1c2ccccc2c2cc(-c3nc4cc(C(=O)NS(=O)(=O)Cc5c(Cl)cccc5Cl)ccc4n3CCOC)ccc21
pIC50: 7.70
--
smilesString: CCn1c2ccccc2c2cc(-c3nc4cc(C(=O)NS(=O)(=O)C(C)(C)C)ccc4n3CCOC)ccc21
pIC50: 6.11

Input line: Hello, please tell me recorded pIC50 for this one: `CCn1c2ccccc2c2cc(-c3nc4cc(C(=O)O)ccc4n3C[C@@H](O)COC)ccc21`
Output line: 6.87

Input line: Output pIC50 of `C=CCn1c2ccccc2c2cc(-c3nc4cc(C(=O)O)ccc4n3CC3CC3)ccc21`
Output line: 7.54

Input line: Check the records and state pIC50 for `CCn1c2ccccc2c2cc(-c3nc4cc(C(=O)O)ccc4n3C)ccc21`
Output line: 6.71

Input line: Provide measured pIC50 value, entry: `CCn1c2ccccc2c2cc(-c3nc4cc(C(=O)O)ccc4n3CCN3CCOCC3)ccc21`
Output line: 5.61

Input line: Tell us which pIC50 value is on record for `CCn1c2ccccc2c2cc(-c3nc4cc(C(=O)O)c(OC)cc4n3CCOC)ccc21`
Output line: 5.51
